# Tested on: kinases (Homo sapiens, UniProt P00533, G719C)
# Construct: purchased Eurofins/DiscoveRx; host or cells: E. coli BL21-derived host (T7 phage display) for most kinases; HEK-293 for the rest
# Test details: KINOMEscan kinase binding assay (Eurofins/DiscoveRx), % Ctrl
# Assay setup: 1 μM; EGFR(G719C)
# % Ctrl, EGFR(G719C) listing for each entry below
Please state the figure in % Ctrl; there is no need to write the unit.

Enquiry: Sample "CNC(=O)[C@H]1CN(C)C(=O)c2cc(C)[nH]c2/C=C2\C(=O)Nc3cc(Cl)c(cc32)OCCO1" — what was its % Ctrl, EGFR(G719C)?
Return: 82

* * *

# % Ctrl, ABL1(Y253F)-phosphorylated listing for each entry below
# Tested on: kinases (Homo sapiens, UniProt P00519, Y253F)
# Construct: purchased Eurofins/DiscoveRx; host or cells: E. coli BL21-derived host (T7 phage display) for most kinases; HEK-293 for the rest
# Test details: KINOMEscan kinase binding assay (Eurofins/DiscoveRx), % Ctrl
# Assay setup: 1 μM; ABL1(Y253F)-phosphorylated
Please state the figure in % Ctrl; there is no need to write the unit.

Worked examples, 6 compounds total:
compound="Cc1cc2c([nH]1)/C=C1\\C(=O)Nc3ccc(cc31)-c1cnn(C)c1CNCCN(C)C2=O [Ex. 125]" property_label="% Ctrl, ABL1(Y253F)-phosphorylated" unit_abbrev="% Ctrl" numeric_value=0
compound="Cc1cc2c([nH]1)/C=C1\\C(=O)Nc3cnc(cc31)-c1cnn(C)c1COCCNC2=O [Ex.123]" property_label="% Ctrl, ABL1(Y253F)-phosphorylated" unit_abbrev="% Ctrl" numeric_value=100
compound="Cc1cc2c([nH]1)/C=C1\\C(=O)Nc3ccc(cc31)OCCOCCNC2=O [Ex. 129]" property_label="% Ctrl, ABL1(Y253F)-phosphorylated" unit_abbrev="% Ctrl" numeric_value=98
compound="CNC(=O)[C@H]1CN(C)C(=O)c2cc(C)[nH]c2/C=C2\\C(=O)Nc3cc(Cl)c(cc32)OCCO1 [Ex. 135]" property_label="% Ctrl, ABL1(Y253F)-phosphorylated" unit_abbrev="% Ctrl" numeric_value=55
compound="Cc1cc2c([nH]1)/C=C1\\C(=O)Nc3ccc(cc31)-c1cnn(C)c1CN(C)CCN(C)C2=O [Ex. 126]" property_label="% Ctrl, ABL1(Y253F)-phosphorylated" unit_abbrev="% Ctrl" numeric_value=0.25
compound="Cc1cc2c([nH]1)/C=C1\\C(=O)Nc3cc(Cl)c(cc31)OCCO[C@@H](C(=O)NC1CNC1)CN(C)C2=O [Ex. 133]" property_label="% Ctrl, ABL1(Y253F)-phosphorylated" unit_abbrev="% Ctrl" numeric_value=57

Enquiry: Sample Cc1cc2c([nH]1)/C=C1\C(=O)Nc3cc(Cl)c(cc31)OCCO[C@@H](C(=O)NC1CCNCC1)CN(C)C2=O [Ex. 134] — what was its % Ctrl, ABL1(Y253F)-phosphorylated?
Return: 32

Enquiry: And then Cc1cc2c([nH]1)/C=C1\C(=O)Nc3ccc(cc31)-c1c(noc1C)COCCN(C)C2=O [Ex. 128] , what is it?
Return: 49

Enquiry: And then Cc1cc2c([nH]1)/C=C1\C(=O)Nc3ccc(nc31)-c1ccccc1OCCCNC2=O [Ex.22] , what is it?
Return: 68

* * *

# Tested on: kinases (Homo sapiens, UniProt P00519, F317I)
# Construct: purchased Eurofins/DiscoveRx; host or cells: E. coli BL21-derived host (T7 phage display) for most kinases; HEK-293 for the rest
# Test details: KINOMEscan kinase binding assay (Eurofins/DiscoveRx), % Ctrl
# Assay setup: 1 μM; ABL1(F317I)-phosphorylated
# % Ctrl, ABL1(F317I)-phosphorylated listing for each entry below

Worked examples, 4 molecules total:
molecule="CNC(=O)[C@H]1CN(C)C(=O)c2cc(C)[nH]c2/C=C2\\C(=O)Nc3cc(Cl)c(cc32)OCCO1 [Ex. 135]" result="84 % Ctrl"
molecule="Cc1cc2c([nH]1)/C=C1\\C(=O)Nc3cc(Cl)c(cc31)OCCOCCN(C)C2=O [Ex. 131]" result="3.5 % Ctrl"
molecule="Cc1cc2c([nH]1)/C=C1\\C(=O)Nc3ccc(cc31)-c1ccnn1CCNCCNC2=O [Ex. 43]" result="94 % Ctrl"
molecule="Cc1cc2c([nH]1)/C=C1\\C(=O)Nc3ccc(cc31)-c1ccnn1CCOCCNC2=O [Ex.39]" result="64 % Ctrl"

Enquiry: Sample Cc1cc2c([nH]1)/C=C1\C(=O)Nc3ccc(cc31)CN(C)C(=O)COCCNC2=O [Ex.111] — what was its % Ctrl, ABL1(F317I)-phosphorylated?
Return: 100 % Ctrl

Enquiry: And then Cc1cc2c([nH]1)/C=C1\C(=O)Nc3ccc(cc31)-c1cnn(C)c1CNCCN(C)C2=O [Ex. 125] , what is it?
Return: 0.75 % Ctrl

Enquiry: And then Cc1cc2c([nH]1)/C=C1\C(=O)Nc3ccc(cc31)-c1ccnn1CCOCCN(C)C2=O [Ex. 41] , what is it?
Return: 75 % Ctrl

Enquiry: And then Cc1cc2c([nH]1)/C=C1\C(=O)Nc3ccc(cc31)-c1cnn(C)c1CN(C)CCN(C)C2=O [Ex. 126] , what is it?
Return: 0.3 % Ctrl

Enquiry: And then Cc1cc2c([nH]1)/C=C1\C(=O)Nc3cnc(nc31)N(C)CCCOCCN(C)C2=O [Ex.71] , what is it?
Return: 100 % Ctrl

* * *

# Tested on: kinases (Homo sapiens)
# Construct: purchased Eurofins/DiscoveRx; host or cells: E. coli BL21-derived host (T7 phage display) for most kinases; HEK-293 for the rest
# Test details: KINOMEscan kinase binding assay (Eurofins/DiscoveRx), % Ctrl
# Assay setup: target PDGFRA; 1 μM
# Method: Kinase binding assays were performed at Eurofins/DiscoveRx using the general KINOMEscan Protocol (Fabian, M. A. et al., “A small molecule-kinase interaction map for clinical kinase inhibitors,” Nat. Biotechnol. 2005, 23(3):329-36). For most assays, kinase-tagged T7 phage strains were prepared in an E. coli host derived from the BL21 strain. […] The kinase concentration in the eluates was measured by qPCR. […]
% Ctrl, PDGFRA strictly under 50 % Ctrl means Met; at 50 % Ctrl or over means Not met.

record_smiles=Cc1cc2c([nH]1)/C=C1\C(=O)Nc3cc(Cl)c(cc31)OCCO[C@@H](C(=O)N1CCN(C)CC1)CN(C)C2=O label_class="Not met"
record_smiles=CN1CCOCCOc2cc3c(cc2Cl)NC(=O)/C3=C\c2[nH]ccc2C1=O label_class=Met

Enquiry: Quick check: % Ctrl, PDGFRA of "Cc1cc2c([nH]1)/C=C1\C(=O)Nc3ccc(cc31)-c1c(C)nn(C)c1COCCN(C)C2=O" under 50 % Ctrl?
Return: Not met

Enquiry: And then "CN1CCSCCOc2cc3c(cc2Cl)NC(=O)/C3=C\c2[nH]ccc2C1=O" , what is it?
Return: Met

Enquiry: And then "Cc1cc2c([nH]1)/C=C1\C(=O)Nc3ccc(cc31)-c1c(noc1C)CNCCN(C)C2=O" , what is it?
Return: Not met

Enquiry: And then "Cc1nn(C)c2c1-c1ccc3c(c1)/C(=C/c1[nH]ccc1C(=O)N(C)CCCO2)C(=O)N3" , what is it?
Return: Not met

* * *

# % Ctrl, FLT3 listing for each entry below
# Tested on: kinases (Homo sapiens)
# Construct: purchased Eurofins/DiscoveRx; host or cells: E. coli BL21-derived host (T7 phage display) for most kinases; HEK-293 for the rest
# Test details: KINOMEscan kinase binding assay (Eurofins/DiscoveRx), % Ctrl
# Assay setup: 1 μM; FLT3
# Procedure: Kinase binding assays were performed at Eurofins/DiscoveRx using the general KINOMEscan Protocol (Fabian, M. A. et al., “A small molecule-kinase interaction map for clinical kinase inhibitors,” Nat. Biotechnol. 2005, 23(3):329-36). For most assays, kinase-tagged T7 phage strains were prepared in an E. coli host derived from the BL21 strain. […] The kinase concentration in the eluates was measured by qPCR. […]
State the result as a value with its unit after it.

Worked examples, 5 compounds total:
record_smiles=Cc1cc2c([nH]1)/C=C1\C(=O)Nc3ccc(cc31)-c1cnn(C)c1COCCN(C)C2=O result="0.15 % Ctrl"
record_smiles=CNC(=O)[C@H]1CN(C)C(=O)c2cc(C)[nH]c2/C=C2\C(=O)Nc3cc(Cl)c(cc32)OCCO1 result="57 % Ctrl"
record_smiles=Cc1cc2c([nH]1)/C=C1\C(=O)Nc3cnc(cc31)-c1cnn(C)c1COCCNC2=O result="87 % Ctrl"
record_smiles=Cc1cc2c([nH]1)/C=C1\C(=O)Nc3ccc(cc31)-c1ccnn1CCOCCN(C)C2=O result="5.5 % Ctrl"
record_smiles=Cc1cc2c([nH]1)/C=C1\C(=O)Nc3ccc(cc31)OCCOCCNC2=O result="100 % Ctrl"

Enquiry: Sample "Cc1cc2c([nH]1)/C=C1\C(=O)Nc3ccc(nc31)-c1ccccc1OCCCNC2=O" — what was its % Ctrl, FLT3?
Return: 81 % Ctrl

Enquiry: And then "Cc1cc2c([nH]1)/C=C1\C(=O)Nc3cc(Cl)c(cc31)OCCO[C@@H](C(=O)N[C@@H]1CCNC1)CN(C)C2=O" , what is it?
Return: 36 % Ctrl

Enquiry: And then "Cc1cc2c([nH]1)/C=C1\C(=O)Nc3cnc(nc31)N(C)CCCOCCN(C)C2=O" , what is it?
Return: 93 % Ctrl
